test: recombinant barcode read abundance after kanamycin selection (control-corrected) (log10(CPM+1)); higher = more efficient recombination; sequences stand for … in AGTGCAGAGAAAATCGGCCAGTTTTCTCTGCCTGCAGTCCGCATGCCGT…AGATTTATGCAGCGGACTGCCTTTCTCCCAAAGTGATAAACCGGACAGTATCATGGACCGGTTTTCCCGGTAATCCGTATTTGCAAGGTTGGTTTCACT; site = the 11-nt target
parameter: recombinant barcode read abundance (log10)
Give only the figure.

| seq | obs value |
| --- | --- |
| CCTGAGTCTTGGGTTCTAACCTGTTGCCT (site CCTGAATCTAG) | 0.289 |
| CTACTAGCTTGGGTTCTAACCTGTTGCAT (site CTACTAGCTTT) | 0.139 |
| CACTTCCCTTGGGTTCTAACCTGTTGCGT (site CACTTCCCTAG) | 0.402 |

Req: Given the sequence AGGAAGACTTGGGTTCTAACCTGTTGCCA (site AGGCAGACTTG) , what is its reported recombinant barcode read abundance (log10)?
Resp: 0.0465

====

This listing pairs sequences with measured recombinant barcode read abundance (log10).
test: recombinant barcode read abundance after kanamycin selection (control-corrected) (log10(CPM+1)); higher = more efficient recombination; sequences stand for … in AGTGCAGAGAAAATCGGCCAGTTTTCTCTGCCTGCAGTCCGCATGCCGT…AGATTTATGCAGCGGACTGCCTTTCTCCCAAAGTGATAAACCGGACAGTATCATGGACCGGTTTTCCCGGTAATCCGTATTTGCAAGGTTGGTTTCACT; site = the 11-nt target
Give only the figure.

| seq | obs value |
| --- | --- |
| TCGCGGACTTGGGTTCTAACCTGTTGCCT (site TCACGGACTAG) | 0.464 |
| GGGGCGTCTTGGGTTCTAACCTGTTGCCT (site GGGGCGGCTAG) | 0.172 |

We next turn to a different sequence, shown below.
Req: Given the sequence CTCTCATCTTGGGTTCTAACCTGTTGCCT (site CTCTCATCTAG) , what is its reported recombinant barcode read abundance (log10)?
Resp: 0.149

====

test: recombinant UMI read abundance after kanamycin selection (control-corrected) (log10(CPM+1)); higher = more efficient recombination; extreme values may be limits of the assay; sequences stand for … in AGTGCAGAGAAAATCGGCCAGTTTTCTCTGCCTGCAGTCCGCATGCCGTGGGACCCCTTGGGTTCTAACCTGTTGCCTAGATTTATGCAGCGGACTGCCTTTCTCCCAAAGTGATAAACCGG…AGGTTGGTTTCACT; site = the 11-nt donor
This listing pairs sequences with measured recombinant UMI read abundance (log10).
Give only the figure.

Before answering, review these 6 worked examples.
| seq | recombinant UMI read abundance (log10) |
| --- | --- |
| ATTGAGACATGGACCGGTTTTCCCGGTAATCCGTATTTGGT (site ATTGATACTAC) | 0.512 |
| TGAATCACATGGACCGGTTTTCCCGGTAATCCGTATTTGAA (site CACGCGCCTGA) | 0.00781 |
| TAGCTAGCATGGACCGGTTTTCCCGGTAATCCGTATTTGAC (site TAGCTAGCTTT) | 0.388 |
| CCAACCCCATGGACCGGTTTTCCCGGTAATCCGTATTTGCT (site CCAACCCCTAG) | 0 |
| TACTTGACATGGACCGGTTTTCCCGGTAATCCGTATTTGCT (site TACTTGACTTG) | 0.00876 |
| TTTCTGTCATGGACCGGTTTTCCCGGTAATCCGTATTTGAA (site TTTCTGTCTTT) | 0.0118 |

Req: Given the sequence AAAGTAGCATGGACCGGTTTTCCCGGTAATCCGTATTTGGC (site AAAGTAGCTGC) , what is its reported recombinant UMI read abundance (log10)?
Resp: 2.01

Req: Given the sequence CTGGAAACATGGACCGGTTTTCCCGGTAATCCGTATTTGCA (site CTGGAAACTCG) , what is its reported recombinant UMI read abundance (log10)?
Resp: 0.843

Req: Given the sequence TCCAAGTCATGGACCGGTTTTCCCGGTAATCCGTATTTGCC (site TCCAATTCTGG) , what is its reported recombinant UMI read abundance (log10)?
Resp: 0

Req: Given the sequence ACTTAGACATGGACCGGTTTTCCCGGTAATCCGTATTTGGT (site ACTTAGACTAC) , what is its reported recombinant UMI read abundance (log10)?
Resp: 1.15

Req: Given the sequence TATTTAGCATGGACCGGTTTTCCCGGTAATCCGTATTTGTG (site TATTTGGCTCA) , what is its reported recombinant UMI read abundance (log10)?
Resp: 0.0112

Req: Given the sequence TTTAATTCATGGACCGGTTTTCCCGGTAATCCGTATTTGCA (site TTTAATTCTTG) , what is its reported recombinant UMI read abundance (log10)?
Resp: 0

====

test: recombinant UMI read abundance after kanamycin selection (control-corrected) (log10(CPM+1)); higher = more efficient recombination; extreme values may be limits of the assay; sequences stand for … in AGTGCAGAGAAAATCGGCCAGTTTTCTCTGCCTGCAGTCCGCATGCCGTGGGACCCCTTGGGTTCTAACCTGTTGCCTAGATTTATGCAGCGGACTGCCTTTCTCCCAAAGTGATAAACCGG…AGGTTGGTTTCACT; site = the 11-nt donor
parameter: recombinant UMI read abundance (log10)
Give only the figure.

Before answering, review these 3 worked examples.
| seq | recombinant UMI read abundance (log10) |
| --- | --- |
| CAAGTCACATGGACCGGTTTTCCCGGTAATCCGTATTTGGT (site CAAGTCACTCC) | 0.00397 |
| CCAGCTGCATGGACCGGTTTTCCCGGTAATCCGTATTTGAT (site CCAGTTGCTAT) | 0.00911 |
| AACAGCCCATGGACCGGTTTTCCCGGTAATCCGTATTTGCA (site AACAGCCCTTG) | 0.756 |

Req: Given the sequence ACATATCCATGGACCGGTTTTCCCGGTAATCCGTATTTGAC (site ACATATCCTGT) , what is its reported recombinant UMI read abundance (log10)?
Resp: 1.43

Req: Given the sequence TGTTTGGCATGGACCGGTTTTCCCGGTAATCCGTATTTGCT (site AGTTTGGCTAG) , what is its reported recombinant UMI read abundance (log10)?
Resp: 0

Req: Given the sequence GGTTAGACATGGACCGGTTTTCCCGGTAATCCGTATTTGAG (site CGTTAGACTCT) , what is its reported recombinant UMI read abundance (log10)?
Resp: 0.202

Req: Given the sequence CGCCGTACATGGACCGGTTTTCCCGGTAATCCGTATTTGAT (site CGCCGTACTAC) , what is its reported recombinant UMI read abundance (log10)?
Resp: 0.0168

Req: Given the sequence CGAGTACCATGGACCGGTTTTCCCGGTAATCCGTATTTGGG (site CGAGCACCTCC) , what is its reported recombinant UMI read abundance (log10)?
Resp: 0.0141

Req: Given the sequence GTGGCACCATGGACCGGTTTTCCCGGTAATCCGTATTTGCA (site GAGGCACCTTG) , what is its reported recombinant UMI read abundance (log10)?
Resp: 0

Req: Given the sequence GACCACCCATGGACCGGTTTTCCCGGTAATCCGTATTTGTT (site GACCACCCTAA) , what is its reported recombinant UMI read abundance (log10)?
Resp: 0.0158

Req: Given the sequence TCCCATACATGGACCGGTTTTCCCGGTAATCCGTATTTGGC (site TCCCATACTGC) , what is its reported recombinant UMI read abundance (log10)?
Resp: 0

Req: Given the sequence ATTTATGCATGGACCGGTTTTCCCGGTAATCCGTATTTGGA (site ATTTATGCTTC) , what is its reported recombinant UMI read abundance (log10)?
Resp: 0.0921

Req: Given the sequence CACTAGCCATGGACCGGTTTTCCCGGTAATCCGTATTTGCC (site CGCTAGCCTGG) , what is its reported recombinant UMI read abundance (log10)?
Resp: 0

Req: Given the sequence TCGCCTTCATGGACCGGTTTTCCCGGTAATCCGTATTTGGT (site TGGCCTTCTAC) , what is its reported recombinant UMI read abundance (log10)?
Resp: 0.00543

Req: Given the sequence CGAGGACCATGGACCGGTTTTCCCGGTAATCCGTATTTGAG (site CGAGGACCTCA) , what is its reported recombinant UMI read abundance (log10)?
Resp: 0.015

====

test: recombinant barcode read abundance after kanamycin selection (control-corrected) (log10(CPM+1)); higher = more efficient recombination; sequences stand for … in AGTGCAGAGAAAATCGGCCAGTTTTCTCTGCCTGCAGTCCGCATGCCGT…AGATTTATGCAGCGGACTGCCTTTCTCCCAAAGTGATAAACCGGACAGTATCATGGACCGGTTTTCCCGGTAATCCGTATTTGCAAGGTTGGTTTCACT; site = the 11-nt target
This listing pairs sequences with measured recombinant barcode read abundance (log10).

Before answering, review these 4 worked examples.
| seq | obs value |
| --- | --- |
| TAATGTTCTTGGGTTCTAACCTGTTGCAT (site TAATGTTCTAT) | 1.14 |
| GTCCTACCTTGGGTTCTAACCTGTTGCCT (site GTCATACCTAG) | 0.0144 |
| GACTTGTCTTGGGTTCTAACCTGTTGCCT (site GACTTGCCTAG) | 0.0458 |
| CAAAGAGCTTGGGTTCTAACCTGTTGCTG (site CAAAGAGCTCA) | 1.38 |

Req: Given the sequence ATGCTACCTTGGGTTCTAACCTGTTGCGG (site ATGCTACCTCC) , what is its reported recombinant barcode read abundance (log10)?
Resp: 1.2

Req: Given the sequence CTACGTCCTTGGGTTCTAACCTGTTGCTC (site CTACGTCCTTA) , what is its reported recombinant barcode read abundance (log10)?
Resp: 0.0289

Req: Given the sequence CGCGCAGCTTGGGTTCTAACCTGTTGCCT (site CGAGCAGCTAG) , what is its reported recombinant barcode read abundance (log10)?
Resp: 0.382

Req: Given the sequence CAGCCCTCTTGGGTTCTAACCTGTTGCCT (site CGGCCCTCTAG) , what is its reported recombinant barcode read abundance (log10)?
Resp: 0.0354

Req: Given the sequence CGCTGATCTTGGGTTCTAACCTGTTGCCT (site GGCTGATCTAG) , what is its reported recombinant barcode read abundance (log10)?
Resp: 0.14
